tested on: CCRIS mutagenicity, Ames/micronucleus/aberration tests; experiment: CCRIS mutagenicity studies; details: Test System: AMES SALMONELLA TYPHIMURIUM; Strain/Indicator: TA102; Metabolic Activation: S-9; Method: STANDARD PLATE
Calls of active or inactive are those of the source. The rule behind the calls is not given here.
Labels: active, inactive

1. CCC(C)(C)c1cc(-n2nc3ccccc3n2)c(O)c(C(C)(C)CC)c1 : inactive
2. CCOC(=O)C1(CCCCCCOCc2cccs2)CO1 (stereo unspecified) : inactive
3. CC(=O)c1cc(O)c(C(C)C)c2cc(C)c(-c3c(C)cc4c(C(C)C)c(O)c(O)c(C=O)c4c3O)c(O)c12 : inactive
4. CN(N=O)C(=O)c1c(N(C)N=O)ncn1C : active
5. OCC(Br)CBr (stereo unspecified) : active
6. CCc1cc(C(C)(C)C)c(O)c(C(C)(C)C)c1 : inactive
7. CCOc1ccc(C(C)(C)C)cc1NC(=O)C(=O)Nc1ccccc1CC : inactive
8. c1ccccc1 : inactive
9. CC(C)(c1ccc(OP(O)O)cc1)c1ccc(OP(O)O)cc1 : inactive
10. COc1ccc2cc(CCC(C)=O)ccc2c1 : inactive
11. CCC1(c2ccccc2)C(=O)NC(=O)NC1=O : inactive
